# ED50 per entry
- System: Mus musculus
- test-protocol: In vivo efficacy against Escherichia coli Juhl, in mouse protection tests when administered subcutaneously (sc)
- Format: functional
measured-parameter: ED50 (mg/kg)

compound: O=C(O)c1cn(C2CC2)c2cc(N3CCNCC3)c(F)cc2c1=O
value-observed: 0.2
--
compound: C[C@H]1C[C@H](N)CN1c1cc2c(cc1F)c(=O)c(C(=O)O)cn2-c1ccc(F)cc1F
value-observed: 0.9
--
compound: N[C@H]1CC(CO)N(c2cc3c(cc2F)c(=O)c(C(=O)O)cn3-c2ccc(F)cc2F)C1 (some centres undefined)
value-observed: 5.9
--
compound: NC1CCN(c2cc3c(cc2F)c(=O)c(C(=O)O)cn3-c2ccc(F)cc2)C1 (centres undefined)
value-observed: 1

###

- test-protocol: Blood level was evaluated by a disk agar diffusion assay at 3.0 hh when administered at a peroral dose of 25 mg/kg
- Format: ADME, organism-based
- Design: dose 25 mg/kg, route oral
- study-conditions: mouse, po, read-out: Blood level
# concentration at 3 h per entry

substance-smiles: C[C@H]1C[C@H](N)CN1c1cc2c(cc1F)c(=O)c(C(=O)O)cn2-c1ccc(F)cc1
concentration at 3 h (ng/mL): 200
//
substance-smiles: C[C@H]1C[C@H](N)CN1c1nc2c(cc1F)c(=O)c(C(=O)O)cn2-c1ccc(F)cc1
concentration at 3 h (ng/mL): 800
//
substance-smiles: C[C@H]1C[C@H](N)CN1c1cc2c(cc1F)c(=O)c(C(=O)O)cn2-c1ccc(F)cc1F
concentration at 3 h (ng/mL): 1100

###

# IC50 per entry
- Test system: Escherichia coli
- test-protocol: Supercoiling inhibition assay using purified DNA gyrase isolated from Escherichia coli H560
- Format: functional
- study-conditions: read-out: I50
measured-parameter: IC50 (µg/mL)

substance-smiles: N[C@H]1C[C@@H](CO)N(c2cc3c(cc2F)c(=O)c(C(=O)O)cn3-c2ccc(F)cc2F)C1
measured-parameter: IC50
value-observed: 10
--
substance-smiles: C[C@@H]1C[C@H](N)CN1c1nc2c(cc1F)c(=O)c(C(=O)O)cn2-c1ccc(F)cc1F
measured-parameter: IC50
value-observed: 7.5
--
substance-smiles: C[C@H]1C[C@H](N)CN1c1nc2c(cc1F)c(=O)c(C(=O)O)cn2-c1ccc(F)cc1F
measured-parameter: IC50
value-observed: 0.6
--
substance-smiles: C[C@H]1C[C@H](N)CN1c1cc2c(cc1F)c(=O)c(C(=O)O)cn2-c1ccc(F)cc1F
measured-parameter: IC50
value-observed: 0.9

###

- Test system: Streptococcus agalactiae
- test-protocol: In vitro Minimum inhibitory concentration against Streptococcus agalactiae CMX 508
- Assay type: functional
# MIC per entry
measured-parameter: MIC (µg/mL)

substance-smiles: O=C(O)c1cn(-c2ccc(F)cc2F)c2nc(N3C[C@@H]4C[C@H]3CN4)c(F)cc2c1=O
measured-parameter: MIC
value-observed: 0.78
--
substance-smiles: O=C(O)c1cn(-c2ccc(F)cc2F)c2cc(N3C[C@@H]4C[C@H]3CN4)c(F)cc2c1=O
measured-parameter: MIC
value-observed: 0.78
--
substance-smiles: O=C(O)c1cn(C2CC2)c2cc(N3CCNCC3)c(F)cc2c1=O
measured-parameter: MIC
value-observed: 0.78
--
substance-smiles: C[C@H]1C[C@H](N)CN1c1nc2c(cc1F)c(=O)c(C(=O)O)cn2-c1ccc(F)cc1
measured-parameter: MIC
value-observed: 0.78

###

- Tested on: Streptococcus pyogenes
- test-protocol: In vitro Minimum inhibitory concentration against Streptococcus pyogenes 930
- Format: functional

compound: C[C@H]1C[C@H](N)CN1c1nc2c(cc1F)c(=O)c(C(=O)O)cn2-c1ccc(F)cc1
units-symbol: µg/mL
MIC: 0.39
--
compound: N[C@H]1CC(CN2CCCC2)N(c2cc3c(cc2F)c(=O)c(C(=O)O)cn3-c2ccc(F)cc2F)C1 (stereo partly drawn)
units-symbol: µg/mL
MIC: 25
--
compound: O=C(O)c1cn(-c2ccc(F)cc2F)c2nc(N3C[C@@H]4C[C@H]3CN4)c(F)cc2c1=O
units-symbol: µg/mL
MIC: 0.78

###

- Test system: Klebsiella pneumoniae
- test-protocol: In vitro Minimum inhibitory concentration against Klebsiella pneumoniae 8045
- Assay type: functional
Hi! Just check whether MIC is below 0.1 µg/mL. Below gives 1, equal or above gives 0.

compound: C[C@H]1C[C@H](N)CN1c1cc2c(cc1F)c(=O)c(C(=O)O)cn2-c1ccc(F)cc1F
class-assignment: 1

compound: NC1CCN(c2cc3c(cc2F)c(=O)c(C(=O)O)cn3-c2ccc(F)cc2F)C1 (centres undefined)
class-assignment: 1

compound: C[C@@H]1C[C@H](N)CN1c1cc2c(cc1F)c(=O)c(C(=O)O)cn2-c1ccc(F)cc1F
class-assignment: 0

compound: O=C(O)c1cn(-c2ccc(F)cc2)c2cc(N3CCC[C@H]3CO)c(F)cc2c1=O
class-assignment: 0

compound: C[C@H]1C[C@H](N)CN1c1nc2c(cc1F)c(=O)c(C(=O)O)cn2-c1ccc(F)cc1F
class-assignment: 1

compound: C[C@H]1C[C@H](N)CN1c1cc2c(cc1F)c(=O)c(C(=O)O)cn2-c1ccc(F)cc1
class-assignment: 1

compound: O=C(O)c1cn(-c2ccc(F)cc2F)c2cc(N3C[C@@H]4C[C@H]3CN4)c(F)cc2c1=O
class-assignment: 1

compound: O=C(O)c1cn(C2CC2)c2cc(N3CCNCC3)c(F)cc2c1=O
class-assignment: 1

compound: C[C@H]1C[C@H](N)CN1c1nc2c(cc1F)c(=O)c(C(=O)O)cn2-c1ccc(F)cc1
class-assignment: 1

compound: C[C@@H]1C[C@H](N)CN1c1nc2c(cc1F)c(=O)c(C(=O)O)cn2-c1ccc(F)cc1F
class-assignment: 0

compound: O=C(O)c1cn(-c2ccc(F)cc2F)c2nc(N3C[C@@H]4C[C@H]3CN4)c(F)cc2c1=O
class-assignment: 1

compound: NC1CCN(c2nc3c(cc2F)c(=O)c(C(=O)O)cn3-c2ccc(F)cc2F)C1 (centres undefined)
class-assignment: 1

###

- Tested on: Staphylococcus epidermidis
- test-protocol: In vitro Minimum inhibitory concentration against Staphylococcus epidermidis 3519
- Format: functional

compound: N[C@H]1CC(CF)N(c2nc3c(cc2F)c(=O)c(C(=O)O)cn3-c2ccc(F)cc2F)C1 (stereo not given in full)
MIC / µg/mL: 0.2

compound: O=C(O)c1cn(-c2ccc(F)cc2)c2cc(N3CCC[C@H]3CO)c(F)cc2c1=O
MIC / µg/mL: 3.1

compound: C[C@H]1C[C@H](N)CN1c1nc2c(cc1F)c(=O)c(C(=O)O)cn2-c1ccc(F)cc1
MIC / µg/mL: 0.1

compound: COCC1C[C@H](N)CN1c1nc2c(cc1F)c(=O)c(C(=O)O)cn2-c1ccc(F)cc1F (stereo not given in full)
MIC / µg/mL: 0.39

compound: O=C(O)c1cn(-c2ccc(F)cc2F)c2cc(N3C[C@@H]4C[C@H]3CN4)c(F)cc2c1=O
MIC / µg/mL: 0.39

compound: NC1CCN(c2nc3c(cc2F)c(=O)c(C(=O)O)cn3-c2ccc(F)cc2F)C1 (stereo not given)
MIC / µg/mL: 0.1

compound: C[C@@H]1C[C@H](N)CN1c1cc2c(cc1F)c(=O)c(C(=O)O)cn2-c1ccc(F)cc1F
MIC / µg/mL: 0.78

compound: O=C(O)c1cn(C2CC2)c2cc(N3CCNCC3)c(F)cc2c1=O
MIC / µg/mL: 0.78

compound: C[C@H]1C[C@H](N)CN1c1cc2c(cc1F)c(=O)c(C(=O)O)cn2-c1ccc(F)cc1F
MIC / µg/mL: 0.2

compound: CCC1C[C@H](N)CN1c1cc2c(cc1F)c(=O)c(C(=O)O)cn2-c1ccc(F)cc1F (stereo not given in full)
MIC / µg/mL: 0.1
